For each record, write down the corresponding differential viability (reversal).
- Procedure Summary: MRP1 drug-resistance reversers in H69AR cells – cell-based, doxorubicin co-treatment, primary screen (AID 602);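 also: viability without doxorubicin minus viability with 2 µM doxorubicin for each compound; larger differential means the compound sensitizes cells more to doxorubicin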
- Condition Notes: H69AR cells + 2 uM doxorubicin, CellTiter-Glo, 72 h; at 10 µM; hits give high values
Among all 85,000 compounds or so, about 35 (0.04%) were called active. The list comes from a sample in which actives are over-represented; it also holds close analogues and randomly drawn compounds.

Q. Which value of differential viability (reversal) has been reported for `CCN(CC(=O)Nc1ccccc1OC)C(=O)Cn1cnc2ccccc2c1=O` in the records?
A. 8.46% (inactive)

Q. Record request: differential viability (reversal) value, item `Cc1ccccc1N1CCN(CCCOc2ccc3c(C)cc(=O)oc3c2)CC1`
A. -14.1% (inactive)

Q. Reported differential viability (reversal), compound CC1=CC(C)(C)Nc2ccc(OC(=O)C(Cc3ccccc3)N3C(=O)C4CCCCC4C3=O)cc21 (stereo not drawn) : ____
A. 11.8% (inactive)

Q. Bench note: what differential viability (reversal) did `O=S(=O)(Cc1cc(Sc2ccccc2)nc(-c2ccccc2)n1)c1ccccc1` show?
A. -7.14% (inactive)

Q. Bench note: what differential viability (reversal) did `Cc1ccc2cc(CCNC(=O)c3ccc4c(c3)OCO4)c(=O)[nH]c2c1` show?
A. -5.04% (inactive)

Q. For `CC(C)(C)NC(=O)Cn1c(SCC(=O)Nc2nccs2)nc2ccccc21` , what is its reported differential viability (reversal)?
A. 7.96% (inactive)

Q. I'd like to know its differential viability (reversal). The compound in question is CC(=O)c1cccc(NC(=O)N2CCCC2C(=O)NCCc2ccccc2)c1 (stereo not drawn)
A. 1.66% (inactive)

Q. Field request: differential viability (reversal) | item: COC(=O)C1=C(Nc2ccc(C)cc2)C=C(C)C(C(=O)OC)C1c1ccc(F)cc1 (stereo not drawn)
A. -31.5% (inactive)

The reported numbers originate from PubChem BioAssay AID602.
